# studyTarget: GST-Rok (full length) (Bacillus subtilis subsp. subtilis str. …, UniProt O34857 1-191)
# Sequence: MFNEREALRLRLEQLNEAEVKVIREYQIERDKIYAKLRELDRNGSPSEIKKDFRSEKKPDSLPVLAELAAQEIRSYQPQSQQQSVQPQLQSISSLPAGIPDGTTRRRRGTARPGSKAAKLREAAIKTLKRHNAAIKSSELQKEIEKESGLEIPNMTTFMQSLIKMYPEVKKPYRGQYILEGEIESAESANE
# experimentNotes: protein binding microarray; Rok is a gene silencer of Bacillus subtilis; high values mean tight binding
# conditionInfo: protein: recombinant; tags: GST (pTH5325, pDEST15-Magic modified); dsDNA, one strand shown
In all, about 33,000 sequences were measured (“e-score”: median about -0.037, highest 2% from about 0.34 on). For the sample, the highest values were picked, then their nearest neighbours and some sequences at random.
Rule: binding signal below 0.08 E-score gives label 1, anything at or above gives label 0.

entrysequence=AGGTGTCA labelvalue="label 1"
entrysequence=AATGTAGT labelvalue="label 0"
entrysequence=CATACATA labelvalue="label 0"
entrysequence=GAGTTTCA labelvalue="label 1"
entrysequence=AATGTAGG labelvalue="label 0"
entrysequence=GCACTTAC labelvalue="label 1"

Prompt: Does `ACTATAAA` have binding signal strictly under 0.08 E-score?
Response: label 0

Prompt: Dear reviewer, please state whether `CCTATAAA` has binding signal strictly beneath 0.08 E-score.
Response: label 0

Prompt: Is it true that binding signal reported for `AGATACCG` is less than 0.08 E-score?
Response: label 0

Prompt: Given the entry `CATGTAGC` , would its reported binding signal be below 0.08 E-score?
Response: label 0

Prompt: Just wondering, is binding signal of `GACGTAGC` below 0.08 E-score?
Response: label 1

Prompt: Threshold test, binding signal < 0.08 E-score: `AAGCTAGC`
Response: label 0

Prompt: Lab note: confirm whether the reported binding signal for this sequence is below 0.08 E-score, equality not counting. sequence: `AAGTCTGA`
Response: label 1

Prompt: Dear colleague, could you confirm whether binding signal of `GATCTCAA` falls below 0.08 E-score? Thanks.
Response: label 1

Prompt: Lab note: confirm whether the reported binding signal for this sequence is below 0.08 E-score, equality not counting. sequence: `GCTGTAGA`
Response: label 1

Prompt: For `ACTGTAGA` , is the recorded binding signal below the cut-off of 0.08 E-score?
Response: label 0

Prompt: Lab note: confirm whether the reported binding signal for this sequence is below 0.08 E-score, equality not counting. sequence: `AACGTAGT`
Response: label 1

Prompt: Please determine if `CGGTGAAC` is below 0.08 E-score in terms of binding signal.
Response: label 1

Prompt: Is binding signal of `AGTACAAG` strictly below 0.08 E-score?
Response: label 0

Prompt: Item `TCGAAGCA` : binding signal beneath 0.08 E-score, strictly?
Response: label 1

Prompt: Consider `CTATTATC` . Does its binding signal lie strictly below 0.08 E-score?
Response: label 0

Prompt: Does this sequence meet the criterion binding signal < 0.08 E-score? `TAGTTTCA`
Response: label 0

Prompt: Is it true that binding signal reported for `CGTACAAA` is less than 0.08 E-score?
Response: label 0

Prompt: # strict comparison: is reported binding signal < 0.08 E-score? input = `GCAGCTTA`
Response: label 1

Prompt: Quick check: binding signal of `GTATACCA` under 0.08 E-score?
Response: label 0
